Source: PubChem BioAssay AID504411

Quick reference for inhibition among some molecules
target: Diacylglycerol lipase-beta (Homo sapiens) (UniProt Q8NCG7); assay: inhibition of human DAGLB hydrolase activity – biochemical, fluorescence, HTS, primary screen (AID 504411); settings: HEK293T DAGLB membrane lysate, EnzChek fluorogenic substrate; at 5.17 µM; hits give high values;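 also: 0% = enzyme with vehicle and 100% = wells lacking enzyme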
Sequence (Q8NCG7 whole entry, looked up): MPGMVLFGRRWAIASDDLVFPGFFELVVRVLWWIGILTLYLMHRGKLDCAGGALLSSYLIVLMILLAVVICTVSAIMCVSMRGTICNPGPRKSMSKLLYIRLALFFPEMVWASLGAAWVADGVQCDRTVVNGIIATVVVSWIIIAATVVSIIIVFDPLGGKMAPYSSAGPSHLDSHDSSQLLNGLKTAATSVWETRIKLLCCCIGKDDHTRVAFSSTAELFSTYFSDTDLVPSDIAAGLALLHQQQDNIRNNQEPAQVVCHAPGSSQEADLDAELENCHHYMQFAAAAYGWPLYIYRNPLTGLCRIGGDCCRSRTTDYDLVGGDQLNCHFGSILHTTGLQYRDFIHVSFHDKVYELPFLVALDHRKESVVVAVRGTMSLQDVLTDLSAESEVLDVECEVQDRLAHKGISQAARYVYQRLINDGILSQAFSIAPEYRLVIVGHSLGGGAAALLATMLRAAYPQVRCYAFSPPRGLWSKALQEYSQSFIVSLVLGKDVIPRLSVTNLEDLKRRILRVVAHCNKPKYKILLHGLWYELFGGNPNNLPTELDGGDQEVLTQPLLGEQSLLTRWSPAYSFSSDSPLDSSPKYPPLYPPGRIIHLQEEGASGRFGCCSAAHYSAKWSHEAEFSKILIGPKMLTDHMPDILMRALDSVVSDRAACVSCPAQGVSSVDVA
Screen size: about 340,000 compounds; about 200 (0.059%) were called active. What follows is part of a selection rich in actives, with near analogues and random picks from the rest.
Give just the numeric value; % need not be written.

Look over these answered cases.
Molecule | Assay result
COc1ccc(/C=N/OCc2ccccc2C#N)c(OC)c1 | -2.91
Cc1nc2ccc(S(=O)(=O)N(C)CC(=O)NC(C)c3ccccc3)cc2s1 (stereo unspecified) | 1.36
CCOC(=O)c1cnc2ccc(F)cc2c1Nc1ccc2c(c1)OCCO2 | -13.6
O=C1CCCN1CCCNC(=S)Nc1ccc(F)c(Cl)c1 | 0.01
Nc1ccc(Cl)c(S(=O)(=O)Nc2ccccc2Cl)c1 | 2.95

Okay, now this molecule:
Q: # returns recorded inhibition (system: Diacylglycerol lipase-beta (Homo sapiens) (UniProt Q8NCG7)) for `Cn1c(-c2ccc(C(=O)c3ccccc3)s2)nc2ccccc21`
Ans: -0.73

---

molecular target: Diacylglycerol lipase-beta (Homo sapiens) (UniProt Q8NCG7); assay: inhibition of human DAGLB hydrolase activity – biochemical, fluorescence, HTS, primary screen (AID 504411); settings: HEK293T DAGLB membrane lysate, EnzChek fluorogenic substrate; at 5.17 µM;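 also: 0% = enzyme with vehicle and 100% = wells lacking enzyme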
Hit rate of the full screen: of about 340,000 compounds, about 200 (0.059%) were called active. Rule as the data show it: active = inhibition above about 34%; inactive = the rest. For the sample, actives were picked, then their nearest neighbours and some compounds at random.
One label from this list, please: label 1 (active), label 0 (inactive)

Compound | Assigned category
Cc1ccc(-c2cc(C(F)(F)F)n3ncc(C(=O)N4CCCCC4c4cccnc4)c3n2)cc1 (stereo not drawn) | label 0
CC(OC(=O)c1cc2ccccc2o1)C(=O)Nc1ccc(N2CCOCC2)cc1 (stereo not drawn) | label 0
COc1ccc(N(CC(=O)N2CCOCC2)S(=O)(=O)c2ccccc2)cc1Cl | label 0

Q: What was the test verdict on `CCOC(=O)N1CCC(O)(c2cc(C)c(C)cc2C)CC1` ?
Ans: label 0

Q: What did this assay record as the result for CCOc1ccc(C(O)Cn2c(=N)n(CCN3CCCCC3)c3ccccc32)cc1 (stereo not drawn) ?
Ans: label 0

Q: What is the recorded call for this compound in the test? `CCOc1ccc(-n2cnc3c(=O)[nH]c(N)nc32)cc1`
Ans: label 0

Q: What call does the record list for CCC1C=C(c2ccccc2)C=CN=C1N(CC)CC (stereo not drawn) ?
Ans: label 0

---

molecular target: Diacylglycerol lipase-beta (Homo sapiens); assay: inhibition of human DAGLB hydrolase activity – biochemical, fluorescence, HTS, primary screen (AID 504411); conditions: HEK293T DAGLB membrane lysate, EnzChek fluorogenic substrate; at 5.17 µM; hits give high values;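 also: 0% = enzyme with vehicle and 100% = wells lacking enzyme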
Out of some 340,000 compounds screened, about 200 (0.059%) were called active. This is one part of a sample in which actives are shown more often than they occur.
Recorded metric: inhibition (%)
Your answer is read as %, so omit the unit and give the number.

Example compounds with recorded inhibition:
Compound | Study target | inhibition (%)
CCOc1nnc(C)c2c(C)n(-c3cccc(Cl)c3)nc12 | Diacylglycerol lipase-beta (Homo sapiens) | -5.36
Cc1ccccc1C(=O)NNC(=O)CN1C(=O)c2ccccc2C1=O | Diacylglycerol lipase-beta (Homo sapiens) | 0.77
COc1ccc(C(=O)Cn2nnc(-c3ccc(N4CCOCC4)cc3)n2)cc1OC | Diacylglycerol lipase-beta (Homo sapiens) | 0.4
NC(N)=NCCCc1cn(CC(=O)N2CCNCC2)nn1 | Diacylglycerol lipase-beta (Homo sapiens) | -3.67
CCOC(=O)C1=C(C)OC(N)=C(C#N)C1c1cncc(-c2ccc(F)cc2)c1 (stereo unspecified) | Diacylglycerol lipase-beta (Homo sapiens) | -3.22

Q: Short answer please: inhibition, Diacylglycerol lipase-beta (Homo sapiens), entry Cc1sc(NC(=O)C2C3CCC(O3)C2C(=O)O)c(C(=O)OC(C)C)c1-c1ccc(Cl)cc1 (stereo unspecified)
Ans: 6.11

Q: What measured inhibition is associated with COC(=O)c1cccc(N2C(=O)C3C4C=CC(CC4)C3C2=O)c1 (stereo unspecified) on Diacylglycerol lipase-beta (Homo sapiens)?
Ans: -2.32

Q: Quick check: inhibition on Diacylglycerol lipase-beta (Homo sapiens), item `O=C1COc2ccc(C(=O)COC(=O)c3ccccc3Cl)cc2N1` ?
Ans: -2.51

Q: Which inhibition is reported with Diacylglycerol lipase-beta (Homo sapiens) for this entry: `CCCNC(=O)CCn1cc(-c2ccc(OC)cc2)nc1CCN` ?
Ans: -2.88

Q: # returns recorded inhibition (system: Diacylglycerol lipase-beta (Homo sapiens)) for `O=C(Cc1ccc(Cl)cc1)NCc1nc(-c2ccccc2)no1`
Ans: -5.92

Q: Write down the reported inhibition of CCC(=O)Nc1ccc(S(=O)(=O)NCC2CCCO2)cc1 (stereo unspecified) , test system: Diacylglycerol lipase-beta (Homo sapiens).
Ans: 0.13

Q: Request: inhibition, test system Diacylglycerol lipase-beta (Homo sapiens), entry `Cc1cc(F)ccc1S(=O)(=O)Nc1ncnc2scc(-c3ccc(F)cc3)c12`
Ans: 11

Q: API: value(readout= inhibition, system= Diacylglycerol lipase-beta (Homo sapiens), query= CC(=O)Nc1ccc(N2C(=O)C3C4CC(=O)C(c5ccccc54)C3C2=O)cc1 (stereo unspecified) )
Ans: 2.73

Q: Item: `Cc1oc2cc([N+](=O)[O-])c(O)c([N+](=O)[O-])c2c1C(=O)c1ccc(Br)cc1` Test system: Diacylglycerol lipase-beta (Homo sapiens) Read-out: inhibition Value: ?
Ans: 44

Q: Which measured inhibition belongs to CC1(C)OC(=O)C(=CNC(CO)C(=O)O)C(=O)O1 (stereo unspecified) , tested on Diacylglycerol lipase-beta (Homo sapiens)?
Ans: -0.76
